Where do these numbers come from? They come from the Human Domainome abundance scans (Beltran et al. 2025).

B1: FERM and PDZ domain-containing protein 4, residues 75 to 154; numbered along this chain, Q14CM0 (parent)
chain: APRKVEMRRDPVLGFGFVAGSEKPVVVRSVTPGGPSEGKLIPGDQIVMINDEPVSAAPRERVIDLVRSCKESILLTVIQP

variants of: B1; assay: abundance fitness (aPCA) (normalised: wild type 0, dead -1); higher = more abundant; growth selection in yeast, the domain comes from the species named; settings: Homo sapiens
measure.name: abundance fitness
Form rule: numeric answer, no unit written next to it.

mutation.spec | abundance fitness
E71W | -0.215
L75R | -0.631
Q79S | 0.022
K70D | -0.055
L40N | -0.94

Now, please, on to the next variant.
**Query** Item V66C has what recorded abundance fitness?
**Result** -0.08
